- experiment.summary: NCI Yeast Anticancer Drug Screen. Data for the rad50 strain (AID 155);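 also: 0% = growth of vehicle-only cultures of the same strain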
- conditions: S. cerevisiae rad50 strain growth inhibition; at 50.0 µM; hits give high values
- Protocol: Growth inhibition of yeast strains with defined genetic alterations is measured as a screen for potential anti-cancer activity. Selected strains with alterations in DNA damage repair or cell cycle control were exposed to compounds and growth inhibition was measured relative to vehicle treated controls. The strain used in this assay is rad50
This is part of a sample that, as a whole, favours compounds with a hit. Of some 79,000 tested, about 15% had one in any assay.
observable: growth inhibition (%)
The reply should contain only the number, in %.

Request: Fill in: growth inhibition of "O=CNc1cccc2c(=O)[nH][nH]c(=O)c12" is ___
Result: -21.9

Request: Fill in: growth inhibition of "CCCc1cc2c3c(c(=O)oc2cc1O)CCCCC3" is ___
Result: -17.9

Request: Fill in: growth inhibition of "COC(=O)C[C@@]1(C(=O)OC)[C@@H](C(=O)OC)C(C(=O)OC)=NN1C" is ___
Result: -5.35

Request: Fill in: growth inhibition of "CCc1cccc(Nc2ccccc2C(=O)O)c1" is ___
Result: 42

Request: Fill in: growth inhibition of CCOC(C)C(=O)C=O (configuration not stated) is ___
Result: -17.9

Request: Fill in: growth inhibition of "O=S(=O)(c1ccccc1)c1ccccc1Br" is ___
Result: 8

Request: Fill in: growth inhibition of "CCCc1cccc[n+]1CC(=O)c1ccccc1" is ___
Result: 5.65

###

Would you mind telling me the reported growth inhibition of each entry?
- experiment.summary: NCI Yeast Anticancer Drug Screen. Data for the mlh1 rad18 strain (AID 175)
- conditions: S. cerevisiae mlh1 rad18 strain growth inhibition; at 50.0 µM; hits give high values
This is part of a sample that, as a whole, favours compounds with a hit. Of some 79,000 tested, about 15% had one in any assay.
The reply should contain only the number, in %.

Request: Fill in: growth inhibition of "O=C/C(=C(/Br)I)c1ccccc1" is ___
Result: -27.1

Request: Fill in: growth inhibition of CCC1(c2ccccc2)CCCC/C1=N/NC(N)=O (stereo not given) is ___
Result: -8.7

Request: Fill in: growth inhibition of "CCOC(=S)SC(=S)SC(=S)OCC" is ___
Result: -22.2

Request: Fill in: growth inhibition of "CCOC(=O)c1nc2ccc(C(F)(F)F)cc2nc1Nc1ccc(OC)c(OC)c1" is ___
Result: -8.75

Request: Fill in: growth inhibition of COC1C(O)CC(OC2C(C)OC(Oc3cc(O)c4c(O)c5c(cc4c3)C[C@@H]([C@H](OC)C(=O)[C@@H](O)[C@@H](C)O)[C@H](OC3CC(OC4CC(OC6CC(C)(O)C(O)C(C)O6)C(O)C(C)O4)C(O)C(C)O3)C5=O)CC2OC(C)=O)OC1C (stereo not given in full) is ___
Result: 0.4

Request: Fill in: growth inhibition of "COc1ccc2c(c1)-c1cc(OC)ccc1C2c1ccccc1" is ___
Result: -7.25

Request: Fill in: growth inhibition of CC[N+](C)(CC)CCOC(=O)C(c1ccccc1)C(O)C1CCCCC1 (stereo not given) is ___
Result: 8.75

Request: Fill in: growth inhibition of "C[N+](C)(C)c1ccc(C(=O)[O-])cc1" is ___
Result: 8.1

Request: Fill in: growth inhibition of "[Cl][Tb]([Cl])[Cl]" is ___
Result: 29

Request: Fill in: growth inhibition of "CC(=C/C=C/C=C(C)\C=C\C=C(\C)C(=O)O)/C=C/C=C(/C)C(=O)O" is ___
Result: 16.9

###

Would you mind telling me the reported growth inhibition of each entry?
- experiment.summary: NCI Yeast Anticancer Drug Screen. Data for the rad50 strain (AID 155);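 also: 0% = growth of vehicle-only cultures of the same strain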
- conditions: S. cerevisiae rad50 strain growth inhibition; at 50.0 µM; hits give high values
- Protocol: Growth inhibition of yeast strains with defined genetic alterations is measured as a screen for potential anti-cancer activity. Selected strains with alterations in DNA damage repair or cell cycle control were exposed to compounds and growth inhibition was measured relative to vehicle treated controls. The strain used in this assay is rad50
Compounds without any hit were thinned out: in the full panel of roughly 79,000, 15% have a hit.
The reply should contain only the number, in %.

Request: Fill in: growth inhibition of CCCCCCCCCCCCCCCCCC(=O)Oc1c(C(C)CC)cc([N+](=O)[O-])cc1[N+](=O)[O-] (configuration not stated) is ___
Result: 13.2

Request: Fill in: growth inhibition of "C=C(COC(=O)C(C)C)[C@H]1Oc2ccc(C(C)=O)cc2[C@@H]1OC(=O)C(C)C" is ___
Result: -11.5

Request: Fill in: growth inhibition of "O=C(COc1ccccc1)Nc1ccc(C(=O)O)cc1" is ___
Result: -2.95

Request: Fill in: growth inhibition of "O=C(NCCN1CCCC1)Nc1ccccc1Cl" is ___
Result: 4.6

Request: Fill in: growth inhibition of "C=CCNC(=S)N(C)Cc1ccccc1Cl" is ___
Result: -7.2

Request: Fill in: growth inhibition of "Brc1cn2[n+](c1)[B-]n1cc(Br)c[n+]1[B-]2" is ___
Result: 0.85

Request: Fill in: growth inhibition of "C=CCNC(=S)Nc1ccc(OC(=O)NC(C)(C)C)cc1" is ___
Result: 2

Request: Fill in: growth inhibition of "Nc1nc2ccc3ccccc3c2c(=O)[nH]1" is ___
Result: -4.35

Request: Fill in: growth inhibition of "Cc1cc(Cl)c(Cl)cc1Cl" is ___
Result: 13

Request: Fill in: growth inhibition of "C/C(=N\NC(N)=O)C(C)(C)O" is ___
Result: 26.8

Request: Fill in: growth inhibition of "O=C(C=c1sc(=CC(=O)c2ccccc2)s1)c1ccccc1" is ___
Result: -3.5

Request: Fill in: growth inhibition of "c1ccc(CCc2ccccn2)nc1" is ___
Result: 22.9

###

- experiment.summary: NCI Yeast Anticancer Drug Screen. Data for the rad50 strain (AID 155);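 also: 0% = growth of vehicle-only cultures of the same strain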
- conditions: S. cerevisiae rad50 strain growth inhibition; at 50.0 µM; hits give high values
The panel holds about 79,000 compounds, 15% with a hit somewhere; the sample as a whole holds those more often. Calls of active or inactive are those of the source. No stated cut-off is given here; in the data, active means growth inhibition above about 70%; inactive means the rest.
observable: growth inhibition

Request: Fill in: growth inhibition of "CC(=O)c1c(C)[nH]c(-c2ccccc2)c1NS(=O)(=O)c1ccc(N)cc1" is ___
Result: -0.2% (inactive)

Request: Fill in: growth inhibition of "Cc1cccc(Cl)c1NC(=O)C(Cl)Cl" is ___
Result: 6.35% (inactive)

Request: Fill in: growth inhibition of "CCN(CC)CCOC1(Cc2ccccn2)CCCCC1" is ___
Result: 1.2% (inactive)

Request: Fill in: growth inhibition of N/N=C(\C(=O)Nc1c(Cl)cc([N+](=O)[O-])cc1Cl)C(c1cnc2ccc([N+](=O)[O-])cc2n1)[N+](=O)[O-] (configuration not stated) is ___
Result: -38.7% (inactive)

Request: Fill in: growth inhibition of "O=C(O)Cc1cc(Cl)ccc1Cl" is ___
Result: -4% (inactive)

Request: Fill in: growth inhibition of "O=C1c2ccccc2Cc2ccc(O)cc21" is ___
Result: 47.1% (inactive)

Request: Fill in: growth inhibition of "c1ccc2c(c1)ccc1cccc[n+]12" is ___
Result: -25.4% (inactive)

Request: Fill in: growth inhibition of CC(NC(=O)c1ccccc1)C(=O)O (configuration not stated) is ___
Result: 25.4% (inactive)

Request: Fill in: growth inhibition of "Clc1ccc(-c2nnc(-c3ccc(Cl)c(Cl)c3)o2)cc1Cl" is ___
Result: 0.25% (inactive)

Request: Fill in: growth inhibition of "O=C(NNC(=S)Nc1ccccc1)c1nsc2ccccc12" is ___
Result: 43.5% (inactive)

Request: Fill in: growth inhibition of "O=C(NCCO)C(=O)NCCO" is ___
Result: 5.25% (inactive)

Request: Fill in: growth inhibition of "Cc1ccc(Oc2ccc(C(=O)c3cccc(C(=O)c4ccc(Oc5ccc(C)cc5)cc4)n3)cc2)cc1" is ___
Result: -18.6% (inactive)
